Just for reference, ChEMBL document CHEMBL4196059 is where these values come from.

Experiment: Hemolytic activity against human RBC at 25 uM after 1 hr by Drabkin's assay relative to control
Format: ADME, cell-based, Erythrocyte
Details: human red blood cells (erythrocytes), read-out: Activity
Answer each item with its documented hemolysis at 1 h, 25 µM.
Numbers only, in %.

Examples from the recorded data:
CC(C)(C)OC(=O)[C@@H]1CCCN1C(=O)N1CCCN1C(=O)[C@@H]1CCCN1C(=O)N1CCCN1C(=O)[C@@H]1CCCN1C(=O)N1CCCN1C(=O)[C@@H]1CCCN1C(=O)N1CCCN1C(=O)OCc1ccccc1 :: 0
O=CN1CCCN1C(=O)N1CCC[C@H]1C(=O)N1CCCN1C(=O)N1CCC[C@H]1C(=O)N1CCCN1C(=O)N1CCC[C@H]1C(=O)N1CCCN1C(=O)N1CCC[C@H]1C(=O)N1CCCN1C(=O)N1CCC[C@H]1C(=O)N1CCCN1C(=O)N1CCC[C@H]1C(=O)N1CCCN1C(=O)N1CCC[C@H]1C(=O)NCCO :: 0.41
O=CN1CCCN1C(=O)N1CCC[C@H]1C(=O)N1CCCN1C(=O)N1CCC[C@H]1C(=O)N1CCCN1C(=O)N1CCC[C@H]1C(=O)N1CCCN1C(=O)N1CCC[C@H]1C(=O)N1CCCN1C(=O)N1CCC[C@H]1C(=O)N1CCCN1C(=O)N1CCC[C@H]1C(=O)N1CCCN1C(=O)N1CCC[C@H]1C(=O)N1CCCN1C(=O)N1CCC[C@H]1C(=O)NCCO :: -0.23
O=CN1CCCN1C(=O)N1CCC[C@H]1C(=O)N1CCCN1C(=O)N1CCC[C@H]1C(=O)N1CCCN1C(=O)N1CCC[C@H]1C(=O)N1CCCN1C(=O)N1CCC[C@H]1C(=O)N1CCCN1C(=O)N1CCC[C@H]1C(=O)NCCO :: 0
CC(C)(C)OC(=O)N1CCC[C@H]1C(=O)N1CCCN1C(=O)N1CCC[C@H]1C(=O)N1CCCN1C(=O)N1CCC[C@H]1C(=O)N1CCCN1C(=O)N1CCC[C@H]1C(=O)N1CCCN1C(=O)OCc1ccccc1 :: 0.227

Below is a list of compounds. For each, state its recorded hemolysis at 1 h, 25 µM.
1. CC(=O)N1CCCN1C(=O)N1CCC[C@H]1C(=O)N1CCCN1C(=O)N1CCC[C@H]1C(=O)N1CCCN1C(=O)N1CCC[C@H]1C(=O)N1CCCN1C(=O)N1CCC[C@H]1C(=O)N1CCCN1C(=O)N1CCC[C@H]1C(=O)N1CCCN1C(=O)N1CCC[C@H]1C(=O)N1CCCN1C(=O)N1CCC[C@H]1C(=O)N1CCCN1C(=O)N1CCC[C@H]1C(=O)NCCO
2. CC(C)(C)OC(=O)[C@@H]1CCCN1C(=O)N1CCCN1C(=O)[C@@H]1CCCN1C(=O)N1CCCN1C(=O)[C@@H]1CCCN1C(=O)N1CCCN1C(=O)[C@@H]1CCCN1C(=O)N1CCCN1C(=O)[C@@H]1CCCN1C(=O)N1CCCN1C(=O)[C@@H]1CCCN1C(=O)N1CCCN1C(=O)[C@@H]1CCCN1C(=O)N1CCCN1C(=O)[C@@H]1CCCN1C(=O)N1CCCN1.Cl
3. O=C(NCCO)[C@@H]1CCCN1C(=O)N1CCCN1C(=O)[C@@H]1CCCN1C(=O)N1CCCN1C(=O)[C@@H]1CCCN1C(=O)N1CCCN1C(=O)[C@@H]1CCCN1C(=O)N1CCCN1C(=O)[C@@H]1CCCN1C(=O)N1CCCN1C(=O)[C@@H]1CCCN1C(=O)N1CCCN1C(=O)[C@@H]1CCCN1C(=O)N1CCCN1C(=O)[C@@H]1CCCN1C(=O)N1CCCN1C(=O)OCc1ccccc1
4. CC(C)(C)OC(=O)N1CCC[C@H]1C(=O)N1CCCN1C(=O)N1CCC[C@H]1C(=O)N1CCCN1C(=O)N1CCC[C@H]1C(=O)N1CCCN1C(=O)N1CCC[C@H]1C(=O)N1CCCN1C(=O)N1CCC[C@H]1C(=O)N1CCCN1C(=O)N1CCC[C@H]1C(=O)N1CCCN1C(=O)N1CCC[C@H]1C(=O)N1CCCN1C(=O)N1CCC[C@H]1C(=O)N1CCCN1C(=O)OCc1ccccc1
5. O=C(O)[C@@H]1CCCN1C(=O)N1CCCN1C(=O)[C@@H]1CCCN1C(=O)N1CCCN1C(=O)[C@@H]1CCCN1C(=O)N1CCCN1C(=O)[C@@H]1CCCN1C(=O)N1CCCN1C(=O)[C@@H]1CCCN1C(=O)N1CCCN1C(=O)[C@@H]1CCCN1C(=O)N1CCCN1C(=O)[C@@H]1CCCN1C(=O)N1CCCN1C(=O)[C@@H]1CCCN1C(=O)N1CCCN1C(=O)OCc1ccccc1
6. CC(C)(C)OC(=O)[C@@H]1CCCN1C(=O)N1CCCN1C(=O)[C@@H]1CCCN1C(=O)N1CCCN1C(=O)[C@@H]1CCCN1C(=O)N1CCCN1C(=O)[C@@H]1CCCN1C(=O)N1CCCN1C(=O)[C@@H]1CCCN1C(=O)N1CCCN1C(=O)[C@@H]1CCCN1C(=O)N1CCCN1C(=O)[C@@H]1CCCN1C(=O)N1CCCN1C(=O)[C@@H]1CCCN1C(=O)N1CCCN1C(=O)OCc1ccccc1

Output line:
0
-0.271
-0.04
-0.23
-0.181
-0.41

Batch request: hemolysis at 1 h, 25 µM for each of the following compounds.
1. O=C(O)[C@@H]1CCCN1C(=O)N1CCCN1C(=O)[C@@H]1CCCN1C(=O)N1CCCN1C(=O)[C@@H]1CCCN1C(=O)N1CCCN1C(=O)[C@@H]1CCCN1C(=O)N1CCCN1C(=O)OCc1ccccc1
2. O=CN1CCCN1C(=O)N1CCC[C@H]1C(=O)N1CCCN1C(=O)N1CCC[C@H]1C(=O)N1CCCN1C(=O)N1CCC[C@H]1C(=O)N1CCCN1C(=O)N1CCC[C@H]1C(=O)N1CCCN1C(=O)N1CCC[C@H]1C(=O)N1CCCN1C(=O)N1CCC[C@H]1C(=O)NCCO

Output line:
-0.361
0.271
